List of collision cross section in nitrogen values.
assay: collision cross section in nitrogen (drift tube, single-field); higher = larger gas-phase ion size; details: ion type: [M+H]; ion source: ESI; ion mode: Positive;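 also: chemical standards at 10 µM analysed by drift tube IMS-QTOF MS in about 3.95 torr nitrogen, mean of duplicate injections differing ≤1%, mass error below 10 ppm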
Structures can show the parent of a compound that is named as a salt.

{"compound": "CC(Cc1ccc(C(C)(C)C)cc1)CN1C[C@@H](C)O[C@@H](C)C1 (stereo partly drawn) [(2R,6S)-Fenpropimorph]", "collision cross section in nitrogen, Å²": 173.5}
{"compound": "CC(C)c1c(C(=O)Nc2ccccc2)c(-c2ccccc2)c(-c2ccc(F)cc2)n1CC[C@@H](O)C[C@@H](O)CC(=O)O [Atorvastatin]", "collision cross section in nitrogen, Å²": 229.7}
{"compound": "CNC(=C[N+](=O)[O-])NCCSCc1ccc(CN(C)C)o1 [Ranitidine]", "collision cross section in nitrogen, Å²": 169}
{"compound": "Cc1ccc(OP(=O)(Oc2ccc(C)cc2C)Oc2ccc(C)cc2C)c(C)c1 [Trixylyl phosphate]", "collision cross section in nitrogen, Å²": 203.1}
{"compound": "CN(C)CCC(c1ccc(Br)cc1)c1ccccn1 (stereo not drawn) [Brompheniramine hydrogen maleate]", "collision cross section in nitrogen, Å²": 167.8}
{"compound": "CC[C@H](C)[C@@H](C(=O)O)n1sc2ccccc2c1=O", "collision cross section in nitrogen, Å²": 155.1}
{"compound": "CC(C)(C)C(O)/C(=C\\c1ccc(Cl)cc1Cl)n1cncn1 (stereo not drawn) [Diniconazole]", "collision cross section in nitrogen, Å²": 177.1}
{"compound": "Cc1ccccc1C(=O)Nc1cccc(OC(C)C)c1 [Mepronil]", "collision cross section in nitrogen, Å²": 169.4}
